Test system: LXRa homodimer (NR concentration 270 nM)
Test: PBM binding z-score (relative to random genomic background probes); higher = stronger binding; sequences stand for … in GC…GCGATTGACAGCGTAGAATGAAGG
What PBM binding z-score was measured for each of the following?
# answer = number (no unit)

Look up PBM binding z-score for this sequence: "ACCGAAAGGTCGACGAGGTGAGTATACACCGTTT"
0.178

Look up PBM binding z-score for this sequence: "ATCGAAAGGTCGAAGGTGAGAATACCCACCCGAA"
0.0457

Look up PBM binding z-score for this sequence: "TCTATTAGTTGATTAGGGCAATCGAAACAGCGGA"
0.306

Look up PBM binding z-score for this sequence: "TATACAGGGTCAAATGCCAGAGTACGAATGTCGA"
3.82

Look up PBM binding z-score for this sequence: "GGAACGAGGGCATTGGAGTTGATAGCATGGCGAT"
-0.304

Look up PBM binding z-score for this sequence: "CGAGACAGGTGAGAAGGTAACTCAGCCTCGATTA"
-0.337

Look up PBM binding z-score for this sequence: "TCTTGTAGATCAAGCAGGTTAAGAGAGCCTGAGT"
-0.729

Look up PBM binding z-score for this sequence: "ATCGAAAGTTCGACGAGGTGAGTATACACCGTTT"
-0.161

Look up PBM binding z-score for this sequence: "AGAATGAGGTTATACGTAGATCAGGAAAGAAAGT"
0.118

Look up PBM binding z-score for this sequence: "CCGAGTAGGTTATGGGCCATTCAGGCAACGGTGA"
-0.0661

Look up PBM binding z-score for this sequence: "TGAATGAGGTTATAAGACCAGGGAACGTTGCAAA"
-0.275

Look up PBM binding z-score for this sequence: "TCATATCGGTAAACAGGTGAAAGTCCGTAAGTTA"
0.341

* * *

System: LXRa homodimer (NR concentration 270 nM)
Test: PBM binding z-score (relative to random genomic background probes); higher = stronger binding; sequences stand for … in GC…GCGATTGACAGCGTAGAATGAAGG
reported endpoint: PBM binding z-score
# answer = number (no unit)

Look up PBM binding z-score for this sequence: "CGAACGAGGGCATGAGTTGATTGCAAATGCCGAT"
-0.529

Look up PBM binding z-score for this sequence: "CGTCCAAGGTCAATGCTAGGTCAGGGAAAGCATT"
2.86

Look up PBM binding z-score for this sequence: "GGAACGAGGGAAAGTTGATAGCAGAGTTTGATGG"
-0.354

Look up PBM binding z-score for this sequence: "CCTAGCAGGCCGATCTGGGTCACTCAAGGCTTGA"
-0.575

Look up PBM binding z-score for this sequence: "TCTGCTAGGTCAGTTGGTTAGCTAACGAGCTGCC"
-0.601

Look up PBM binding z-score for this sequence: "CCTAGTTGGTCAGGAGTTCACACACCGGATATGA"
1.92

* * *

Test system: LXRb homodimer (NR concentration 270 nM)
Test: PBM binding z-score (relative to random genomic background probes); higher = stronger binding; sequences stand for … in GC…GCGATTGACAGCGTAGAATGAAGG
The threshold is inclusive: PBM binding z-score of exactly -0.3 counts as 1; values below receive -1.

Reported PBM binding z-score reaches at least -0.3 for "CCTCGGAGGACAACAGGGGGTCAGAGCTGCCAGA" ?
1

Reported PBM binding z-score reaches at least -0.3 for "GTACCAAGGTGAATAGCTCGTTGATGAGTAGGCG" ?
-1

Reported PBM binding z-score reaches at least -0.3 for "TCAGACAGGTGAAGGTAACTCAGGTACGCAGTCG" ?
1

Reported PBM binding z-score reaches at least -0.3 for "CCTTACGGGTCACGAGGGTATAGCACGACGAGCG" ?
-1

Reported PBM binding z-score reaches at least -0.3 for "CCAGACAGGTGAAAAGTAACTCAGTCTGGTACGC" ?
1

Reported PBM binding z-score reaches at least -0.3 for "CATACAGGGTCAGGTAGGCCAGAGTAGGGACGGC" ?
1

Reported PBM binding z-score reaches at least -0.3 for "ACTAGCAGGCCAAGGGTCACTGAAGATTAGTCCG" ?
-1

Reported PBM binding z-score reaches at least -0.3 for "ACTATTAGTTGACTTAGGGCAACCGCTACGACGC" ?
1

Reported PBM binding z-score reaches at least -0.3 for "ATCTCTAGGTAAAGATAGTTCAGTGTATGCAAAT" ?
1

Reported PBM binding z-score reaches at least -0.3 for "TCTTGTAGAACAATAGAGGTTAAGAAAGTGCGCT" ?
1

Reported PBM binding z-score reaches at least -0.3 for "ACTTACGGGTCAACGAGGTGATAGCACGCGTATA" ?
1

Reported PBM binding z-score reaches at least -0.3 for "CCTAGCAGGCCAGGGCCACTCAAGCATTTCGCTT" ?
-1

Measured values drawn from the supplement of paper PMC6555819 for this set.
